Some binders, each annotated with its measured koff.
Target: T1, cynomolgus monkey BCMA (cynomolgus monkey, UniProt A0A2K5UD97 1-53)
T1 construct: Soluble analyte in SPR; construct not described; also called cyBCMA; Cyno BCMA
T1 sequence (A0A2K5UD97 entry or part of it): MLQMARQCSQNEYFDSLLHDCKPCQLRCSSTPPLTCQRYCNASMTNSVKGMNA
Experiment: SPR, IgG immobilised, 37 C

binder	koff, s⁻¹
L3.PY/L1.PS/H3.AQ (antibody, V domains shown, IgG) VH: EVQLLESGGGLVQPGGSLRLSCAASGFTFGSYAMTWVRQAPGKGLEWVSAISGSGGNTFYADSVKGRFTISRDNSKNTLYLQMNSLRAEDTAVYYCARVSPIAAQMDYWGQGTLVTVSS VL: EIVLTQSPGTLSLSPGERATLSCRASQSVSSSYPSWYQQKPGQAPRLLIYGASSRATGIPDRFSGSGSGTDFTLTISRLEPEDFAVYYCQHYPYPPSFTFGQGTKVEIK	0.00433
L3.PY/L1.AH/H2.LT (antibody, V domains shown, IgG) VH: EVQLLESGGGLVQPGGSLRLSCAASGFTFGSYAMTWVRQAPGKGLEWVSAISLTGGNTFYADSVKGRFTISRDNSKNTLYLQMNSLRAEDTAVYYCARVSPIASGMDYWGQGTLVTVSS VL: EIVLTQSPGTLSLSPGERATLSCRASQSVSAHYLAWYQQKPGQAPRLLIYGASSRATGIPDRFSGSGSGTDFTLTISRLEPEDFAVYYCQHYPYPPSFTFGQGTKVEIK	0.00296
L3.PY/H3.AQ (antibody, V domains shown, IgG) VH: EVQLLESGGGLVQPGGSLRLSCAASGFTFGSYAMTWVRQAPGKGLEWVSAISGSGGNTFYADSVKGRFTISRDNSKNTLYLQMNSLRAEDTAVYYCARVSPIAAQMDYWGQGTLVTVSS VL: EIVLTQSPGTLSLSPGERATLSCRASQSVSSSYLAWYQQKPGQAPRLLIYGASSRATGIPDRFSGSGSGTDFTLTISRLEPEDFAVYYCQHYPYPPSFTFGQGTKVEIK	0.00539
